Run Description: small-molecule binders of probe aLefty1, primary screen, biochemical, small-molecule microarray, 635/667 nm fluorescence (AID 1153);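 further: score merges spot fluorescence with signal-to-noise ratio from the scanned slide images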
Test Context: higher = more signal
Field: composite z-score. Provide a value for each of the compounds that follow.
Just the number, please, no unit after it.

# input Requested field: composite z-score. Item: CCOC(=O)NN=C1C[C@@H](O)[C@@H](O)[C@@H]2[C@@H]3C(=O)N(Cc4ccccc4)C(=O)[C@@H]3CC[C@H]12
# output -0.332

# input Requested field: composite z-score. Item: CC(CCN1CCCCc2nc(C)c(C)cc21)=NO[C@H](C)c1cn([C@H](CO)Cc2ccccc2)nn1
# output -0.0162

# input Requested field: composite z-score. Item: CCOC(=O)[C@H](CC(C)C)NC(=O)CCC1CC(OC(=O)NCc2ccc3c(c2)OCO3)CC2(CCCC(COC(=O)NCC(c3ccccc3)c3ccccc3)O2)O1 (stereo partly drawn)
# output -0.106

---

Run Description: splicing luciferase reporter signal modulators, primary screen, spliceosome inhibition project, cell-based, HEK293, splice +/- reporter (AID 1101);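 further: HEK293 cells carrying a splicing-competent luciferase reporter gene; test concentration not given here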
Test Context: luminescence, 24 h, higher = more signal, called active from +8 up or from −8 down
Field: z-score. Provide a value for each of the compounds that follow.
Just the number, please, no unit after it.

# input Requested field: z-score. Item: COC(=O)[C@H](C)NC(=O)CCC1CC(OC(=O)NCc2cccc3ccccc23)CC2(CCCC(COC(=O)NCC(c3ccccc3)c3ccccc3)O2)O1 (stereo not given in full)
# output 0.026

# input Requested field: z-score. Item: CC(C)(C)N1C(=O)[C@H]2[C@H]3[C@H](O)[C@H](O)CC(=O)[C@H]3CC[C@H]2C1=O
# output -0.432

# input Requested field: z-score. Item: CCN1C(=O)[C@H]2[C@H]3[C@H](O)[C@H](O)CC(=NOCC(C)C)[C@@H]3CC[C@H]2C1=O
# output 0.272

# input Requested field: z-score. Item: O=C1C[C@@H](O)[C@@H](O)[C@@H]2[C@@H]3C(=O)N(C[C@@H]4CCCO4)C(=O)[C@@H]3CC[C@H]12
# output 0.32

# input Requested field: z-score. Item: CC1O[C@H]2C3=C(C(=O)[C@@H]4O[C@@H]4[C@H]3O)[C@@H]1C1[C@@H](C)OC=C3[C@H](O)C4O[C@@H]4C(=NOCc4ccccc4)[C@]312 (stereo not given in full)
# output -0.469

# input Requested field: z-score. Item: CCCNC(=O)OC[C@H]1O[C@H](c2ccccc2)C=C[C@@H]1Oc1ccc(OC)cc1
# output -0.0906

# input Requested field: z-score. Item: C[C@@H]1C=CCC(=O)OC[C@H]2O[C@@H](C=C[C@@H]2O)[C@H](C)C=CCC(=O)OC1
# output -0.813

# input Requested field: z-score. Item: Cc1cc2c(nc1C)CCCCN2CC(C)ON=C[C@@H](C)[C@H](OCc1ccccc1)C(C)C (stereo not given in full)
# output -0.037

# input Requested field: z-score. Item: CO[C@H]1COC(=O)[C@H](C)NC(=O)CC=C[C@@H](C)[C@H](OC)COC(=O)[C@@H](OCc2ccccc2)C=C[C@@H]1C
# output -0.00187

# input Requested field: z-score. Item: CCN1C(=O)[C@@H]2[C@H]3C(=CC[C@@H]2C1=O)C1(OCCCO1)[C@H]1O[C@H]1[C@H]3O
# output -9.75

# input Requested field: z-score. Item: CCOC(=O)NN=C1C[C@@H](O)[C@@H](O)[C@@H]2[C@@H]3C(=O)N(c4cccc(Oc5ccccc5)c4)C(=O)[C@@H]3CC[C@@H]12
# output 0.0999

# input Requested field: z-score. Item: CON=C[C@@H](NS(=O)(=O)c1ccc(C)cc1)[C@H](C)C=CCC(=O)OC
# output -0.114

# input Requested field: z-score. Item: CO[C@H]1COC(=O)[C@@H]2CCCN2C(=O)CC=C[C@@H](C)[C@H](OC)COC(=O)[C@@H](OCc2ccccc2)C=C[C@@H]1C
# output -1.63

# input Requested field: z-score. Item: CO[C@H]1COC(=O)[C@@H](Cc2ccccc2)NC(=O)[C@@H](C)COC(=O)CCC[C@@H]1C
# output -0.498

# input Requested field: z-score. Item: CCOC(=O)[C@H](CC(C)C)NC(=O)CCC1CC(OC(=O)NCc2cccc3ccccc23)CC2(CCCC(COC(=O)NCC3CCCCC3)O2)O1 (stereo not given in full)
# output -1.42

# input Requested field: z-score. Item: O=C1[C@H]2[C@H]3[C@H](O)[C@H](O)CC(=NOC[C@@H](O)COCc4ccco4)[C@H]3CC[C@H]2C(=O)N1c1ccc(F)cc1F
# output -2.86

# input Requested field: z-score. Item: CCOC(=O)[C@H](CC(C)C)NC(=O)CCC1CC(OC(=O)NCc2ccc3c(c2)OCO3)CC2(CCCC(COC(=O)NCC(c3ccccc3)c3ccccc3)O2)O1 (stereo not given in full)
# output 0.907

# input Requested field: z-score. Item: C[C@@H](c1ccccc1)N1C(=O)[C@H]2[C@H]3[C@H](O)[C@H](O)CC(=NOCc4ccccc4)[C@H]3CC[C@H]2C1=O
# output -0.0874

# input Requested field: z-score. Item: CCOC(=O)[C@H](Cc1ccccc1)NC(=O)CCC1CC(OC(=O)NCCc2ccc(F)cc2)CC2(CCCC(COC(=O)NCCc3ccc(Cl)cc3)O2)O1 (stereo not given in full)
# output -0.0219

# input Requested field: z-score. Item: CC(C)(C)N1C(=O)[C@H]2[C@H]3[C@H](O)[C@H](O)CC(=O)[C@@H]3CC[C@H]2C1=O
# output 0.343

# input Requested field: z-score. Item: O=C1C=C[C@@H](O)[C@@H]2[C@@H]3C(=O)N(C[C@@H]4CCCO4)C(=O)[C@@H]3CC[C@@H]12
# output 0.186

# input Requested field: z-score. Item: CCOC(=O)[C@H](CC(C)C)NC(=O)CCC1CC(OC(=O)NCc2ccc3c(c2)OCO3)CC2(CCCC(COC(=O)NCc3cccc(C(F)(F)F)c3)O2)O1 (stereo not given in full)
# output -0.235

# input Requested field: z-score. Item: COc1cccc([C@H]2Oc3ccc(OC)cc3C(=NO[C@@H](C)c3cn([C@H](CO)Cc4ccccc4)nn3)[C@@H]2O)c1
# output -0.0241

# input Requested field: z-score. Item: Cc1ccc(S(=O)(=O)n2c3ccccc3c3nnc(C(=O)c4ccccc4)nc32)cc1
# output -1.04

# input Requested field: z-score. Item: CC[C@@H](c1ccccc1)n1c(=O)n2n(c1=O)[C@H]1[C@H](O)[C@@H]3O[C@@H]3C(=O)[C@H]1CC2
# output 0.797

---

Test system: Fibrinogen (Alexa647-labelled)
Run Description: fibrinogen binders on compound microarrays, profiling panel, artefact control for SMM control-protein annotation, biochemical, small-molecule microarray, 635/667 nm fluorescence (AID 1131);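 further: z-score merges 667 nm fluorescence with per-spot signal-to-noise over triplicate slides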
Test Context: fibrinogen-A647 binding fluorescence, higher = more signal
Measure: composite z-score
Just the number, please, no unit after it.

# input Requested field: composite z-score. Item: CC[C@@H](c1ccccc1)n1c(=O)n2n(c1=O)[C@H]1[C@H](O)[C@@H]3O[C@@H]3C(=NOC[C@@H](O)COCc3ccco3)[C@H]1CC2
# output -1.9

# input Requested field: composite z-score. Item: O=C1C[C@@H](O)[C@@H](O)[C@@H]2[C@@H]3C(=O)N(Cc4ccccc4)C(=O)[C@@H]3CC[C@@H]12
# output 0.547

# input Requested field: composite z-score. Item: CCOC(=O)NN=C1C[C@@H](O)[C@@H](O)[C@@H]2[C@@H]3C(=O)N(Cc4ccc5c(c4)OCO5)C(=O)[C@@H]3CC[C@H]12
# output 0.785

# input Requested field: composite z-score. Item: COC(=O)[C@H](C)NC(=O)CCC1CC(OC(=O)NCc2ccc3c(c2)OCO3)CC2(CCCC(COC(=O)NCC3CCCCC3)O2)O1 (some centres undefined)
# output 0.52

# input Requested field: composite z-score. Item: O=C1C[C@@H](O)[C@@H](O)[C@@H]2[C@@H]3C(=O)N(C[C@@H]4CCCO4)C(=O)[C@@H]3CC[C@@H]12
# output 0.517

# input Requested field: composite z-score. Item: CC(CCN1CCCCc2nc(C)c(C)cc21)=NO[C@@H](C)c1cn([C@H](CO)Cc2ccccc2)nn1
# output 0.624

# input Requested field: composite z-score. Item: O=C1CCCC=C1C(O)CCCCBr (centres undefined)
# output 0.798

# input Requested field: composite z-score. Item: COc1ccc(O[C@H]2C=C[C@@H](c3ccccc3)O[C@@H]2CON=CC[C@@H]2C=C[C@H](OC(C)=O)[C@@H](COC(C)=O)O2)cc1
# output 0.516

# input Requested field: composite z-score. Item: C[C@@H](c1ccccc1)N1C(=O)[C@H]2[C@H]3[C@H](O)[C@H](O)CC(=NO[C@@H]4O[C@H](CO)[C@@H](O)[C@H](O)[C@H]4O)[C@H]3CC[C@H]2C1=O
# output 0.318

# input Requested field: composite z-score. Item: COC(=O)CC=C[C@@H](C)[C@@H](C=NOCC[C@@H]1C=C[C@H](OC(C)=O)[C@@H](COC(C)=O)O1)NS(=O)(=O)c1ccc(C)cc1
# output -0.329

# input Requested field: composite z-score. Item: CO[C@@H]1COC(=O)[C@H](CCSC)NC(=O)CC=C[C@@H](C)COC(=O)[C@H](C)NC(=O)CC=C[C@H]1C
# output -0.433

# input Requested field: composite z-score. Item: CO[C@@H]1COC(=O)CC=C[C@H](C)[C@H](OC)COC(=O)[C@H](C)NC(=O)CC=C[C@H]1C
# output -0.394

# input Requested field: composite z-score. Item: C[C@H](ON=C1[C@H]2CCn3c(=O)n(-c4ccccc4)c(=O)n3[C@H]2[C@H](O)[C@@H]2O[C@H]12)c1cn([C@H](CO)Cc2ccccc2)nn1
# output 0.985

# input Requested field: composite z-score. Item: CC(C)CON=C1[C@H]2CCn3c(=O)n(Cc4cc5c(cc4Cl)OCO5)c(=O)n3[C@H]2[C@H](O)[C@@H]2O[C@H]12
# output 0.172

# input Requested field: composite z-score. Item: CCCNC(=O)OC[C@H]1O[C@H](CCON=C(C)CCC(=O)OC[C@H]2O[C@H](c3ccccc3)C=C[C@@H]2Oc2ccc(OC)cc2)C=C[C@@H]1Oc1ccc(OC)cc1
# output -0.467

# input Requested field: composite z-score. Item: CC1O[C@H]2C3=C(C(=O)[C@@H]4O[C@@H]4[C@H]3O)[C@@H]1C1[C@@H](C)OC=C3[C@H](O)C4O[C@@H]4C(=NOCc4ccccc4)[C@]312 (some centres undefined)
# output -1.18

# input Requested field: composite z-score. Item: CC(C)CCN1CCc2nc(COc3ccccc3)c3c(c2C1)CO[C@@H](C)C3
# output 0.602

# input Requested field: composite z-score. Item: CCOC(=O)[C@H](Cc1ccccc1)NC(=O)CCC1CC(OC(=O)NCc2ccc3c(c2)OCO3)CC2(CCCC(COC(=O)NCCc3ccccc3OC)O2)O1 (some centres undefined)
# output 1

# input Requested field: composite z-score. Item: COC(=O)[C@@H]1CC[C@H](C)[C@@H](c2ccc(C)cc2)N1C(=O)c1ccc(C=NO[C@@H](C)c2cn([C@H](CO)Cc3ccccc3)nn2)cc1
# output 0.648

# input Requested field: composite z-score. Item: C=CC[C@@H]1C=C[C@H](ON=C(C)CCC(=O)OC[C@H]2O[C@H](C#Cc3ccccc3)C=C[C@@H]2Oc2ccc(C)cc2)[C@@H](CO)O1
# output 0.955

# input Requested field: composite z-score. Item: CON=C[C@@H](NS(=O)(=O)c1ccc(C)cc1)[C@H](C)C=CCC(=O)OC
# output -0.717

# input Requested field: composite z-score. Item: CCOC(=O)[C@H](Cc1ccccc1)NC(=O)CCC1CC(OC(=O)NCCc2ccc(F)cc2)CC2(CCCC(COC(=O)NCCc3ccccc3OC)O2)O1 (some centres undefined)
# output 0.916

# input Requested field: composite z-score. Item: CCC(=O)[C@@]1(O)C(=O)N2C(=C3C(=O)OCC[C@@H]31)N(Cc1ccccc1)C(C)=C(C(=O)OC)[C@H]2c1ccccc1
# output 0.375

# input Requested field: composite z-score. Item: CON=C[C@@H](C)[C@H](OCc1ccccc1)C(C)C
# output -0.734
